Parameter: pEC50. Scope: all listed entries.
- system-name: recombinant human BCMA-his protein (Acro biosystems, Cat #BCA-H522Y) (human) (UniProt Q02223)
- Sequence (Q02223 1-54, stated change not applied): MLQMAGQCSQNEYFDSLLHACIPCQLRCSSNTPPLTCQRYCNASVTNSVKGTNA
- experimental-protocol: capture ELISA: antibody captured on the plate, biotin-labeled human BCMA-his detected with streptavidin-HRP
pEC50: −log10 of the molar value.
measured-property: pEC50

binder="huB1H2-V33 (antibody, human IgG1, kappa, V domains shown, Humanized IgG1/kappa; cell supernatant in the Octet assay, purified antibody in Biacore, ELISA and FACS) VH: QVQLVQSGAEVKKPGASVKVSCKASGYTLTNYVMHWVRQAPGQGLEWIGFIIPFNDGTKYNEHFKGRVTITSDTSISTAYMQLSSLRSEDTAVYYCARYDFEGYFDVWGQGTLVTVSS VL: DIQMTQSPSSLSASVGDRVTITCSASQDITNFLNWYQQKPGKAPKLLIYSTSRLHSGVPSRFSGSGSGTDFTFTISSLQPEDIATYYCQQYSNLPWTFGQGTKVEIKR" measured_property=pEC50 reported_measurement=9.36
binder="mouse anti-BCMA monoclonal antibody B1H2 (antibody, V domains shown, Hybridoma-derived mouse mAb purified on Protein A; also called Mouse B1H2; mouse antibody B1H2) VH: EVQLQQSGPELVKPGASVKMSCKASGYTLTNYVMHWMKQKPGQGLEWIGFIIPFNDGTKYNEHFKGKATLTSDKSSNTAYMVLSSLTSEDSAVYYCARYDFEGYFDVWGAGTTVTVSS VL: DIQMTQTTSSLSASLGDRVTISCSASQDITNFLNWYQQKPDGTVKLLIYSTSRLHSGVPSRFSGSGSGTDYSLTISNLEPEDIATYYCQQYSNLPWTFGGGTNLEIK" measured_property=pEC50 reported_measurement=9.75
binder="huB1H2-V10 (antibody, human IgG1, kappa, V domains shown, Humanized IgG1/kappa; cell supernatant in the Octet assay, purified antibody in Biacore, ELISA and FACS) VH: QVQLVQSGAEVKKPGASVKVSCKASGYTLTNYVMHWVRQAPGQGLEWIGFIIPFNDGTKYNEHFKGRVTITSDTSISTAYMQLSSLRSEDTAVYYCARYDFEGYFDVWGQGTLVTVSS VL: DIQMTQSPSSLSASVGDRVTITCSASQDITNFLNWYQQKPGKAPKLLIYSTSRLHSGVPSRFSGSGSGTDFTLTISSLQPEDIATYYCQQYSNLPWTFGQGTKVEIKR" measured_property=pEC50 reported_measurement=9.33
binder="chimeric B1H2 antibody (antibody, human IgG1, kappa, V domains shown, Mouse variable domains fused to human IgG1 / kappa constant regions, made in 293F cells) VH: EVQLQQSGPELVKPGASVKMSCKASGYTLTNYVMHWMKQKPGQGLEWIGFIIPFNDGTKYNEHFKGKATLTSDKSSNTAYMVLSSLTSEDSAVYYCARYDFEGYFDVWGAGTTVTVSS VL: DIQMTQTTSSLSASLGDRVTISCSASQDITNFLNWYQQKPDGTVKLLIYSTSRLHSGVPSRFSGSGSGTDYSLTISNLEPEDIATYYCQQYSNLPWTFGGGTNLEIKR" measured_property=pEC50 reported_measurement=9.65

FYI, the data here is from patent US20230055711A1.
